- System: Panc-1 Human Pancreatic Carcinoma Xenografts
- test.settings: i.v. qd x 1 at estimated MTD; 6 mice/group; study end Day 63
Would you kindly list Toxic Deaths for each of these compounds?
Give bare numbers.

compound | study.target | measured.result
CCC(=O)O[C@H]1C[C@H]2OC[C@@]2(OC(C)=O)[C@H]2[C@H](OC(=O)c3ccccc3)[C@]3(O)C[C@H](OC(=O)[C@H](O)[C@@H](NC(=O)OC(C)(C)C)c4ccoc4)C(C)=C([C@@H](O)C(=O)[C@]12C)C3(C)C [Compound 1401] | Panc-1 Human Pancreatic Carcinoma Xenografts | 0
CCC(=O)O[C@H]1C[C@H]2OC[C@@]2(OC(C)=O)[C@H]2[C@H](OC(=O)c3ccccc3)[C@]3(O)C[C@H](OC(=O)[C@H](O)[C@@H](NC(=O)OC(C)(C)C)c4ccco4)C(C)=C([C@@H](O)C(=O)[C@]12C)C3(C)C [Compound 1393] | Panc-1 Human Pancreatic Carcinoma Xenografts | 0
CCC(=O)O[C@H]1C[C@H]2OC[C@@]2(OC(C)=O)[C@H]2[C@H](OC(=O)c3ccccc3)[C@]3(O)C[C@H](OC(=O)[C@H](O)[C@H](C=C(C)C)NC(=O)OC(C)(C)C)C(C)=C([C@@H](O)C(=O)[C@]12C)C3(C)C [Compound 1351] | Panc-1 Human Pancreatic Carcinoma Xenografts | 0
CCC(=O)O[C@H]1C[C@H]2OC[C@@]2(OC(C)=O)[C@H]2[C@H](OC(=O)c3ccccc3)[C@]3(O)C[C@H](OC(=O)[C@H](O)[C@@H](NC(=O)OC(C)(C)C)c4cccs4)C(C)=C([C@@H](O)C(=O)[C@]12C)C3(C)C [Compound 1418] | Panc-1 Human Pancreatic Carcinoma Xenografts | 0

// moving on: another record for Toxic Deaths
Return reported Toxic Deaths; argument: CCC(=O)O[C@H]1C[C@H]2OC[C@@]2(OC(C)=O)[C@H]2[C@H](OC(=O)c3ccccc3)[C@]3(O)C[C@H](OC(=O)[C@H](O)[C@@H](NC(=O)OC(C)(C)C)c4ccsc4)C(C)=C([C@@H](O)C(=O)[C@]12C)C3(C)C [Compound 1424]
6
